Data provenance is PubChem BioAssay.

Tested on: Fibrinogen (Alexa647-labelled)
experiment: fibrinogen binders on compound microarrays, profiling panel, artefact control for SMM control-protein annotation, biochemical, small-molecule microarray, 635/667 nm fluorescence (AID 1131);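 further: z-score merges 667 nm fluorescence with per-spot signal-to-noise over triplicate slides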
measurement-context: fibrinogen-A647 binding fluorescence, higher = more signal
Listed here: items and their measured composite z-score.

Here are 3 compounds together with their reported answers.
compound=COC(=O)CC=C[C@H](C)[C@H](CO)NS(=O)(=O)c1ccc(C)cc1 system_tested="Fibrinogen (Alexa647-labelled)" test_result=0.466
compound=COCCOC(=O)N1C(=O)[C@@]2(c3cc(C#Cc4ccc(OC)cc4)ccc31)[C@H](c1ccc(O)cc1)N1[C@H](c3ccccc3)[C@H](c3ccccc3)OC(=O)[C@H]1[C@@H]2C(N)=O system_tested="Fibrinogen (Alexa647-labelled)" test_result=0.972
compound=CCCNC(=O)OC[C@H]1O[C@H](CCON=C[C@@H](OC)[C@H](C)C=CCC(=O)OC)C=C[C@@H]1Oc1ccc(OC)cc1 system_tested="Fibrinogen (Alexa647-labelled)" test_result=0.325

Lab book: composite z-score of `CCOC(=O)NN=C1C[C@@H](O)[C@@H](O)[C@@H]2[C@@H]3C(=O)N(C4CCCCC4)C(=O)[C@@H]3CC[C@H]12` noted as 0.657

Lab book: composite z-score of CN1C(=O)C2C=CC(C(O)c3ccc(I)cc3)N(NC(=O)OC(C)(C)C)C2C1=O (stereo not drawn) noted as 0.974

Lab book: composite z-score of `CC[C@@H](c1ccccc1)n1c(=O)n2n(c1=O)[C@H]1[C@H](O)[C@@H]3O[C@@H]3C(=NOCC(C)C)[C@H]1CC2` noted as -0.203

Lab book: composite z-score of `Cn1c(=O)n2n(c1=O)[C@H]1[C@H](O)[C@@H]3O[C@@H]3C(=NOC[C@@H](O)COCc3ccco3)[C@H]1CC2` noted as 0.617

Lab book: composite z-score of `CC(=O)C[C@H](O)[C@@H](NC(=O)OC(C)(C)C)C(C)C` noted as -0.454

* * *

experiment: anti-His antibody binders, primary screen, artefact control for SMM control protein annotation, biochemical, small-molecule microarray, 635 nm fluorescence (AID 1128);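 further: score merges feature fluorescence with signal-to-noise for each printed compound spot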
measurement-context: anti-His Alexa647 antibody binding, higher = more signal
Everything with composite z-score lower than 0.2 is -1; everything else, including exactly 0.2, is 1.

Solved entries (count: 3):
compound="CN1C(=O)C2C(C1=O)C1C=C(CCCO)C2C(c2ccc(CN3CCCC3)cc2)N1C (stereo not given)" assigned_label=-1
compound=CC=CC1=C(CO)[C@H](O)[C@H]2O[C@H]2[C@H]1O assigned_label=-1
compound=COCCOC(=O)N1C(=O)[C@@]2(c3cc(C#CC4(O)CCCCCC4)ccc31)[C@H](C(=O)N1CCN(c3ncccn3)CC1)[C@H]1C(=O)O[C@H](c3ccccc3)[C@H](c3ccccc3)N1[C@@H]2c1ccc(OCCO)cc1 assigned_label=1

Item `COC(=O)CC=C[C@@H](C)[C@@H](C=NO[C@H](C)c1cn([C@@H]2COC[C@H]2O)nn1)OC` with composite z-score of 0.2 or above?
1

Item `O=C1C[C@@H](O)[C@@H](O)[C@@H]2[C@@H]3C(=O)N(C4CCCCC4)C(=O)[C@@H]3CC[C@H]12` with composite z-score of 0.2 or above?
1

Item `COCCCNC(=O)[C@@]1(Sc2ccc(C)cc2)CC(=O)N(Cc2ccccc2)[C@@H]1c1ccc(CO)cc1I` with composite z-score of 0.2 or above?
-1

Item `COCCCNC(=O)[C@@]1(CCS(=O)(=O)c2ccccc2)N=C(c2ccc(OCCCO)cc2)O[C@H]1c1ccccc1` with composite z-score of 0.2 or above?
1

Item `O=C1C[C@@H](O)[C@@H](O)[C@@H]2[C@@H]3C(=O)N(c4cccc(Oc5ccccc5)c4)C(=O)[C@@H]3CC[C@@H]12` with composite z-score of 0.2 or above?
-1

Item `COCCOC(=O)N1C(=O)[C@@]2(c3cc(C#Cc4ccc(OC)cc4)ccc31)[C@H](C(=O)N1CCN(c3ncccn3)CC1)[C@H]1C(=O)O[C@H](c3ccccc3)[C@H](c3ccccc3)N1[C@@H]2c1ccc(OCCO)cc1` with composite z-score of 0.2 or above?
1

Item CCN(CC)c1ccc(N2CC=CC34O[C@@H]5/C=C\CCC(C)OC(=O)C5[C@H]3C(=O)N(CCCO)[C@@H]4C2=O)cc1 (stereo not given in full) with composite z-score of 0.2 or above?
1

Item `C=C(/C(=C/C[C@H](OC(C)=O)c1ccc(OCCO)cc1)c1cnc2ccccc2c1)C(C)C` with composite z-score of 0.2 or above?
1

Item `CCCNC(=O)OC[C@H]1O[C@H](CCON=C2[C@H]3CCn4c(=O)n(-c5ccccc5)c(=O)n4[C@H]3[C@H](O)[C@@H]3O[C@H]23)C=C[C@@H]1Oc1ccc(OC)cc1` with composite z-score of 0.2 or above?
-1

* * *

experiment: binders of probe aFSTL3 on microarray, primary screen, stem cell growth factor project, biochemical, small-molecule microarray, fluorescence 635/667 (AID 1064);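 further: measures binding of the biotinylated anti-FSTL3 antibody to printed compounds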
measurement-context: higher = more signal
Everything with composite z-score lower than -0.3 is false; everything else, including exactly -0.3, is true.

Solved entries (count: 5):
chem_smiles=C=CC[C@@H]1C=C[C@H](ON=Cc2ccc(C(=O)N3[C@H](c4ccc(C)cc4)[C@@H](C)CC[C@H]3C(=O)OC)cc2)[C@@H](CO)O1 assigned_label=false
chem_smiles=COc1ccc(-c2nc3c(c4c2C[C@H](C)OC4)CN(CCC(C)C)CC3)cc1 assigned_label=true
chem_smiles=CCN1C(=O)[C@H]2[C@H]3[C@H](O)C=CC(=O)[C@@H]3CC[C@H]2C1=O assigned_label=false
chem_smiles=O=C(NN=C1C[C@@H](O)[C@@H](O)[C@@H]2[C@@H]3C(=O)N(c4cccc(Oc5ccccc5)c4)C(=O)[C@@H]3CC[C@@H]12)OCc1ccccc1 assigned_label=true
chem_smiles=C[C@@H]1C=CCC(=O)OC[C@H](C)C(=O)N2CCC[C@H]2C(=O)OC1 assigned_label=false

Item `C#CCCCON=C1C[C@@H](O)[C@@H](O)[C@@H]2[C@@H]3C(=O)N(CCC(=O)OCC)C(=O)[C@@H]3CC[C@@H]12` with composite z-score of -0.3 or above?
true

Item `CC(C)C[C@@H]1NC(=O)[C@H]2C[C@@H](C(=O)O)[C@@H](c3ccc(O)cc3)N2C1=O` with composite z-score of -0.3 or above?
true

Item `CCc1cc2c(nc1CC)CCN(CCC(C)=NOC[C@@H](O)COCc1ccco1)C2` with composite z-score of -0.3 or above?
true

* * *

experiment: cell viability in Huh7 cells, primary screen, cytotoxicity control for HCV replication inhibitor project, CellTiter-Glo luminescence, basal, 48 h (AID 1143);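 further: Huh7 hepatoma cells carrying a hepatitis C replication reporter with no stimulus; test concentration not given here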
measurement-context: Huh7 HCV replicon, higher = more signal, called active from +8 up or from −8 down
Listed here: items and their measured z-score.
Reply briefly: the number, and no unit.

compound=COC(=O)[C@@]1(Cc2ccccc2)[C@H]2c3cc(C(=O)N4CCCC4)n(Cc4ccccn4)c3C[C@H]2CN1C(=O)c1ccccc1 endpoint_name=z-score test_result=-1.5
compound="COC(=O)[C@H](C)NC(=O)CCC1CC(OC(=O)NCCc2ccc(F)cc2)CC2(CCCC(COC(=O)NCC(c3ccccc3)c3ccccc3)O2)O1 (some centres undefined)" endpoint_name=z-score test_result=-0.169
compound=CCN1C(=O)[C@H]2[C@H]3[C@H](O)[C@H](O)CC(=NOCC=C(C)CCC=C(C)C)[C@H]3CC[C@H]2C1=O endpoint_name=z-score test_result=-0.327

Lab book: z-score of `COC(=O)[C@]1(CO)N=C(c2ccc(OCCCO)cc2)O[C@@H]1c1ccccc1N=[N+]=[N-]` noted as 0.159

Lab book: z-score of `COc1ccccc1CN1C(=O)c2ccccc2[C@@H](C(=O)NCC(F)(F)F)[C@@H]1c1ccc(CO)cc1` noted as -1.92

* * *

system-tested: Epidermal growth factor receptor (Homo sapiens) (UniProt P00533)
Sequence (P00533 whole entry, looked up): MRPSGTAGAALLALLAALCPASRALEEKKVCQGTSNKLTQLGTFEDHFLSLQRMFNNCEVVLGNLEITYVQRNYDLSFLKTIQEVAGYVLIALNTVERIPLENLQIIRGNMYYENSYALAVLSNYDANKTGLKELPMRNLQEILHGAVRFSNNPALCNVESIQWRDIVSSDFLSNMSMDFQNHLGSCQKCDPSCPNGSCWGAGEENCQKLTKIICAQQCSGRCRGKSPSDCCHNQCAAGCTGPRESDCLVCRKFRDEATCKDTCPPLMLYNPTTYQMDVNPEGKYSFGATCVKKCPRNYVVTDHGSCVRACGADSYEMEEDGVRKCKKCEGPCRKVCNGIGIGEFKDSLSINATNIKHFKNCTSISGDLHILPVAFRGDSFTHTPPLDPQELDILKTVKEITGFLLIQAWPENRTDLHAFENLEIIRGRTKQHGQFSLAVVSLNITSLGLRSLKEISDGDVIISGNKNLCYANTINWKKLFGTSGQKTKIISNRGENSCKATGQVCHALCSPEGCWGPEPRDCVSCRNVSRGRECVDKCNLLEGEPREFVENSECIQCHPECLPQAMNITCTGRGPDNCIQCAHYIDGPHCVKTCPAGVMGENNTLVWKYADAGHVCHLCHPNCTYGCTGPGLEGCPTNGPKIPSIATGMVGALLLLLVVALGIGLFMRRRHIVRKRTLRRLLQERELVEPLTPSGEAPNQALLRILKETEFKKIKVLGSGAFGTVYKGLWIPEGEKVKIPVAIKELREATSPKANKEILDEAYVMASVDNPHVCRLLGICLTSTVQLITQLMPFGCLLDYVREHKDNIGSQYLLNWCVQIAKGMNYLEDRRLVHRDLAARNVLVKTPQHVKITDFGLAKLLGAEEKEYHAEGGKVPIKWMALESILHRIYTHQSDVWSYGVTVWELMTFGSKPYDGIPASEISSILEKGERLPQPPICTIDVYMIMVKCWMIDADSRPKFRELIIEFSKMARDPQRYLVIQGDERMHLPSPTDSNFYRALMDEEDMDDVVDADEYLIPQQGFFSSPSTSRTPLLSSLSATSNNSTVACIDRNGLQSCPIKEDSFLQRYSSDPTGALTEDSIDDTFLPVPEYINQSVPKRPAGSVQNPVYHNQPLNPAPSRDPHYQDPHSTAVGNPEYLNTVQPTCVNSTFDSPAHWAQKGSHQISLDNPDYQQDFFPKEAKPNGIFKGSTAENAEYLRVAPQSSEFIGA
experiment: EGFR binders on small-molecule microarrays, primary screen, biochemical, small-molecule microarray, 635 nm fluorescence (AID 1104);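 further: score merges 667 nm emission intensity with spot signal to noise over triplicate slides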
measurement-context: EGFR binding, higher = more signal
Everything with composite z-score lower than 0.4 is -1; everything else, including exactly 0.4, is 1.

Solved entries (count: 2):
compound=COCCOC(=O)N1C(=O)[C@@]2(c3ccccc31)[C@H](C(N)=O)[C@H]1C(=O)O[C@H](c3ccccc3)[C@H](c3ccccc3)N1[C@@H]2c1ccccc1OCCO system_tested="Epidermal growth factor receptor (Homo sapiens) (UniProt P00533)" assigned_label=1
compound=CCN1C(=O)[C@H]2[C@H]3[C@H](O)C=CC(=O)[C@@H]3CC[C@H]2C1=O system_tested="Epidermal growth factor receptor (Homo sapiens) (UniProt P00533)" assigned_label=-1

Then this compound:
Item `COC(=O)C1=C(C)[C@@H](O)[C@@H](C)[C@H](c2c(OC)c(OC)c(C)c(OC)c2OC)O1` with composite z-score of 0.4 or above?
-1
